species: Rattus norvegicus; test: Open TG-GATES - Regimen: Single; format: toxicity, organism-based, Sprague-Dawley; parameters: regimen Single, gender Male, age 6 weeks; settings: in vivo, po, 100 mg/kg, 24 h, tissue Plasma, route gavage, dose level Low
A collection of compounds and their measured TBIL
Your answer should be a plain number; it is taken to be in mg/dL.

O=C(O)c1cn(C2CC2)c2cc(N3CCNCC3)c(F)cc2c1=O | 0.3
O=C(O)c1cc(/N=N/c2ccc(S(=O)(=O)Nc3ccccn3)cc2)ccc1O | 0.1
C[C@H](CS)C(=O)N1CCC[C@H]1C(=O)O | 0.3
CCc1cc(C(N)=S)ccn1 [ETHIONAMIDE] | 0.3

With those in mind, consider the next compound.
Quick one: TBIL of `Clc1ccccc1CN1CCc2sccc2C1` ? 0.1
